meta.source: ChEMBL document CHEMBL5226392

METHOD SUMMARY: Cytotoxicity against LPS-stimulated mouse RAW264.7 cells assessed as cell survival at 50 uM preincubated for 15 mins followed by LPS stimulation and measured after 20 hrs by CCK-8 assay relative to control
Format: toxicity, cell-based
CONDITION DETAILS: LPS-stimulated RAW264.7 cells, time 1215 min, read-out: Activity
READOUT NAME: viability at 20 h, 50 µM (%)
Expressed in %, but write only the number.

// lookup viability at 20 h, 50 µM for CCCCCCCC(=O)c1ccc(OC)c2[nH]c(C)c(OC)c(=O)c12
69.9

# viability at 20 h, 50 µM lookup, item CCCCCCC[C@H](O)c1ccc(OC)c2[nH]c(C)c(OC)c(=O)c12
64.7

Could you tell me which viability at 20 h, 50 µM is on file for COc1c(C)[nH]c2c(c1=O)[C@@H](CCCCCc1ccc(O)cc1)CCC2=O ?
89.3

Can you look up the measured viability at 20 h, 50 µM of COc1c(C)[nH]c2c(OC)ccc(CCCCCCC(C)=O)c2c1=O for me?
86.5

What value of measured viability at 20 h, 50 µM is listed for COc1c(C)n(OC)c2c(c1=O)[C@@H](CCCCC(=O)c1ccccc1)CCC2 ?
73.2

###

METHOD SUMMARY: Cytotoxicity against LPS-stimulated mouse RAW264.7 cells assessed as cell survival at 50 uM preincubated for 15 mins followed by LPS stimulation and measured after 20 hrs by CCK-8 assay relative to control
Assay type: toxicity, cell-based
CONDITION DETAILS: LPS-stimulated RAW264.7 cells, time 1215 min, read-out: Activity
READOUT NAME: viability at 20 h, 50 µM (%)
// return numeric value only (unit: %, not printed)

Recorded results for 2 molecules are shown here.
>>> meas_value("COc1c(C)[nH]c2c(O)ccc(CCCCCc3ccccc3)c2c1=O")
59.3
>>> meas_value("COc1c(C)[nH]c2ccc3c(c2c1=O)[C@@H]1CCC[C@@]3(c2ccccc2)O1")
100

Which viability at 20 h, 50 µM is listed for COc1c(C)[nH]c2c(c1=O)[C@H](CCCCCc1ccccc1)CCC2 ?
61
